Test system: CEM cells HIV-1 protection, formazan growth assay
procedure summary: NCI AIDS Antiviral Assay
test conditions: measured here: growth of uninfected CEM cells
Protocol: The ability of compounds to protect human CEM cells from HIV-1 infection is measured as a screen for new compounds capable of inhibiting the HIV virus. Five concentrations of drug were tested on uninfected and infected cells and cell growth was measured using a soluble formazan assay. […] Compounds that provided at least 50% protection were retested. Compounds that provided at least 50% protection on retest were listed as moderately active. […]
Can you tell me pIC50 for the items I'm about to list?
Answers are plain numbers, as −log10 of the molar value.

Worked examples follow.
Query :: For the compound CCOC(=O)C1CSC(=N)N1C(C)=O (configuration not stated) , what pIC50 is on record?
Result :: 3.91

Query :: For the compound `OC[P+](CO)(CO)C12CC3CC(CC(C3)C1)C2` , what pIC50 is on record?
Result :: 4.38

Query :: For the compound CSC1(Cc2ccccn2)C(=O)Nc2cccc([N+](=O)[O-])c21 (configuration not stated) , what pIC50 is on record?
Result :: 4.50

Batch: pIC50 for all items listed.
1. COc1ccc(/C=C2/C(=O)NC3SC=C(c4cccc([N+](=O)[O-])c4)N23)cc1 (configuration not stated)
2. Cc1ccc(OP2(=O)Nc3ccccc3S2)cc1 (configuration not stated)
3. CCOC(=O)c1c(-c2ccccc2)csc1N
4. Cc1nc2cncnc2n(CCN2CCOCC2)c1=O
5. C[n+]1c(-c2ccc(/C=N\NC(=O)c3ccc(C(=O)N/N=C/c4ccc(-c5cn6ccsc6[n+]5C)cc4)cc3)cc2)cn2ccsc21

Result ::
4.08
4.59
3.97
4.33
6.30

* * *

System: CEM cells HIV-1 protection, formazan growth assay
procedure summary: NCI AIDS Antiviral Assay
test conditions: measured here: growth of uninfected CEM cells
Can you tell me pIC50 for the items I'm about to list?
Numbers only, as −log10 of the molar value.

Worked examples follow.
Query :: For the compound COC(=O)C1=CON2C3CC4CC(C3)CC(C4)C12C (stereo not drawn) , what pIC50 is on record?
Result :: 3.87

Query :: For the compound `CN(C)c1ccc(/C=C/c2cc[n+]3cc(-c4ccccc4)sc3n2)cc1` , what pIC50 is on record?
Result :: 6.49

Query :: For the compound `CCCCC(=O)N1C(=O)/C(=C\N(C)C)c2cc(C=O)ccc21` , what pIC50 is on record?
Result :: 4.53

Query :: For the compound `O=c1oc2ccccc2c(O)c1C=NC(=S)c1ccncc1` , what pIC50 is on record?
Result :: 3.74

Query :: For the compound `Cc1cc2c(cc1Cl)S(=O)(=O)OC(c1ccc([N+](=O)[O-])cc1)=N2` , what pIC50 is on record?
Result :: 3.94

Batch: pIC50 for all items listed.
1. COc1cc2c(c(OC)c1OC)-c1ccc(SC)c(=O)cc1[C@@H](NC(=O)C(F)(F)F)CC2
2. O=P1(c2ccccc2)c2ccccc2-c2ccccc21
3. O=C(NCCCCCCO)c1cccc2cc3ccccc3nc12
4. O=Nc1sc(=N\O)/c(=N/O)sc1NO
5. C=C1CC/C=C(/C(=O)O)CC[C@H]2[C@@H]1CC2(C)C

Result ::
1. 7.61
2. 3.99
3. 4.73
4. 4.49
5. 3.75

Batch: pIC50 for all items listed.
1. COc1cc(OC)c(-c2cc(=O)c3c(OC)c(OC)c(OC)c(OC)c3o2)cc1OC
2. C(=C\c1c[nH]c2ccccc12)/c1ccc2ccccc2n1

Result ::
1. 4.71
2. 4.78

* * *

Tested on: CEM cells HIV-1 protection, formazan growth assay
procedure summary: NCI AIDS Antiviral Assay;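 active = compounds giving half or more protection of infected cells from virus-caused growth loss, again on retest; inactive = the rest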
Respond only with the outcome that fits, drawn from label 1 for active, label 0 for inactive

Some solved cases for reference:
Query :: Status in this test for CCOC(=O)C(NC(=O)c1ccccc1)(N1CCN(c2cc3c(cc2F)c(=O)c(C(=O)O)cn3CC)CC1)C(F)(F)F (stereo unspecified) ?
Result :: label 0

Query :: Status in this test for `CC(C)S(=O)(=O)n1c(N)nc2ccc(/C(=N/O)c3ccccc3)cc21` ?
Result :: label 1

Query :: Status in this test for `N#Cc1c2c(cn3c1nc1ccccc13)CCCCC2` ?
Result :: label 0

Query :: Status in this test for `CCCCn1c(-c2ccc(Cl)cc2)cs/c1=N\Nc1nc2c(c(=O)n(C)c(=O)n2C)n1C` ?
Result :: label 0

Query :: Status in this test for `Cc1nn[n-]n1.N.N.N.N.N.[Cl-].[Co+3]` ?
Result :: label 0

More entries:
Query :: Status in this test for CCOC(=O)C1=C(C)N(c2ccccc2)C2=C(C(=O)N(c3ccccc3)C2c2ccccc2)C1c1ccccc1 (stereo unspecified) ?
Result :: label 0

* * *

Test system: CEM cells HIV-1 protection, formazan growth assay
procedure summary: NCI AIDS Antiviral Assay
pEC50: −log10 of the molar value.
readout kind: pEC50

Worked examples follow.
Query :: Form field: pEC50 recorded for COc1ccc(C2SC(N)=Nc3c2c(C)nn3C(=O)Cc2ccccc2)cc1 (stereo not drawn) with CEM cells HIV-1 protection, formazan growth assay (enter value)
Result :: 4.04

Query :: Form field: pEC50 recorded for `OCCN(CCO)CN(CO)c1nc(N(CO)CN(CCO)CCO)nc(N(CO)CN(CCO)CCO)n1` with CEM cells HIV-1 protection, formazan growth assay (enter value)
Result :: < 3.36

Here is another molecule to look at.
Query :: Form field: pEC50 recorded for `O=C(NC(=O)c1cc(-c2ccccc2)n[nH]1)c1ccccc1` with CEM cells HIV-1 protection, formazan growth assay (enter value)
Result :: < 3.70

* * *

System: CEM cells HIV-1 protection, formazan growth assay
procedure summary: NCI AIDS Antiviral Assay
test conditions: measured here: growth of uninfected CEM cells
readout kind: IC50

Worked examples follow.
Query :: For the compound Cc1ccc(S(=O)(=O)N/N=C2\CC3C4C=CC3C2C4)cc1 (stereo not drawn) , what IC50 is on record?
Result :: > 200 µM

Query :: For the compound `CC(C)(Oc1ccc(C(=O)c2ccc(Cl)cc2)cc1Cl)C(=O)N1CCN(c2ccccc2)CC1` , what IC50 is on record?
Result :: > 20 µM

Query :: For the compound `CCC(=O)CCCC=C(c1cc(Cl)c(OC)c(C(=O)OC)c1)c1cc(Cl)c(OC)c(C(=O)OC)c1` , what IC50 is on record?
Result :: 40.7 µM

Query :: For the compound `CCCCCCCCCCCCCCCCCCN(C)C` , what IC50 is on record?
Result :: 97.7 µM

Query :: For the compound `O=c1oc2ccccc2c2c1Sc1ccccc1N2` , what IC50 is on record?
Result :: > 51.3 µM

Batch: IC50 for all items listed.
1. NCCNCCCCCCCCCCCCOS(=O)(=O)O
2. COc1ccc(NC(C)=O)cc1N1C(=O)/C(=C\c2cccc(Oc3ccccc3)c2)S(=O)(=O)C1c1ccccc1 (stereo not drawn)
3. NC(=S)N/N=C1\c2ccccc2CCC1CCC1(O)CCc2ccccc2C1=O (stereo not drawn)
4. C=C1C(=O)C23[C@H](O)C1CC[C@H]2[C@]12COC3(O)[C@@H](O)[C@@H]1C(C)(C)CC[C@@H]2O
5. Cc1nsnc1CCO
6. O=C1Nc2nc(=O)nc3[nH]c(=O)nc(n23)N1

Result ::
["> 112 µM", "33.1 µM", "31.6 µM", "1.95 µM", "> 1740 µM", "> 251 µM"]

* * *

Tested on: CEM cells HIV-1 protection, formazan growth assay
procedure summary: NCI AIDS Antiviral Assay
test conditions: measured here: growth of uninfected CEM cells
readout kind: pIC50
Numbers only, as −log10 of the molar value.

Worked examples follow.
Query :: For the compound `Cc1cc(OC(=O)NCn2cc(-c3ccccc3)nn2)ccc1Cl` , what pIC50 is on record?
Result :: 4.02

Query :: For the compound `CCOC(=O)CCc1c(C)[nH]c2c(C)c3c([nH]c4ccc(Cl)cc43)c(C)c2c1=O` , what pIC50 is on record?
Result :: 4.96

More entries:
Query :: For the compound O=C(Nc1nc2c(ncn2C2OC(CO)C(O)C2O)c(=O)[nH]1)c1ccccc1 (stereo not given) , what pIC50 is on record?
Result :: 3.60

* * *

System: CEM cells HIV-1 protection, formazan growth assay
procedure summary: NCI AIDS Antiviral Assay
readout kind: EC50

Worked examples follow.
Query :: For the compound `CN1C/C(=C\c2ccccc2[N+](=O)[O-])C(=O)/C(=C/c2ccccc2[N+](=O)[O-])C1` , what EC50 is on record?
Result :: > 2 µM

Query :: For the compound `NC(N)=NS(=O)(=O)c1ccc(NC(=O)c2ccc3[nH]c4ccccc4c(=O)c3c2)cc1` , what EC50 is on record?
Result :: > 200 µM

Query :: For the compound `COC(=O)C1=C(C(=O)OC)SC(=CC#CC=C2SC(C(=O)OC)=C(C(=O)OC)S2)S1` , what EC50 is on record?
Result :: > 5.62 µM

Batch: EC50 for all items listed.
1. C=CCN1/C(=C2\SC(=S)N(c3ccc(C)cc3)C2=O)Sc2c1nc[nH]c2=O
2. O=C(/C=C/c1ccccc1)c1ccc(Sc2ccccc2)cc1
3. CC1(O)OC(=O)c2ccc3ccccc3c21 (configuration not stated)
4. O=C1OCC(Cc2ccc3c(c2)OCO3)[C@H]1Cc1ccccc1 (some centres not stated)

Result ::
["> 2.51 µM", "> 2 µM", "> 398 µM", "> 200 µM"]

Batch: EC50 for all items listed.
1. CC1(n2[nH]c(=O)n(-c3ccccc3)c2=O)Cn2c(=O)n(-c3ccccc3)c(=O)n2-c2ccccc21 (configuration not stated)
2. O=C(C#Cc1ccccc1)N1c2ccccc2CC1c1c[nH]c2ccccc12 (configuration not stated)
3. [Ni].c1c[nH]cn1.c1c[nH]cn1.c1c[nH]cn1.c1c[nH]cn1.c1c[nH]cn1.c1c[nH]cn1
4. Cc1[nH]c2ccccc2c1C1Cc2ccccc2N1C(=O)/C(Cl)=C/c1ccccc1 (configuration not stated)
5. c1ccc(N2N=NC3C4CC(C5CCCC54)C32)cc1 (configuration not stated)
6. CC(C)c1cc(OCC(O)CO)cc(C(C)C)c1 (configuration not stated)
7. COc1cc(C[C@@H](C)N)cc(OC)c1

Result ::
1. > 200 µM
2. > 20 µM
3. > 66.1 µM
4. > 6.61 µM
5. > 200 µM
6. > 141 µM
7. > 200 µM
